Kindly supply the reported cell viability values for the records listed here.
- Tested on: Vero E6
- Measurement Notes: cell viability relative to DMSO; higher = less toxic
- Reported Conditions: 72 h; 1 nM
Numbers only here, please. The scale is %.

Q: Given COc1ccc2c(c1)C(=O)N(CCc1ccc(S(=O)(=O)NC(=O)NC3CCCCC3)cc1)C(=O)C2(C)C , state its recorded cell viability.
Result: 97.8

Q: Give its cell viability value. Item: COc1ccccc1C(=O)Nc1cccc(NC(=O)c2cccc(C)c2)c1
Result: 102

Q: Entry COc1c(C)c2c(c(O)c1C/C=C(\C)CCC(=O)O)C(=O)OC2 has what cell viability?
Result: 96.1

Q: Dear colleague, I am looking for the recorded cell viability of the following compound: Nc1ncnc2c1c(-c1cccc(OCc3ccccc3)c1)cn2C1CC(CN2CCCC2)C1 (stereo in doubt)
Result: 99.9

Q: Need cell viability of Clc1ccc2c(c1)N=C(N1CCNCC1)c1ccccc1N2 , thanks.
Result: 103

Q: Data request, read-out cell viability, for O=C(O)c1ccccc1
Result: 97.1

Q: Return reported cell viability; argument: COc1ccc(OC)c(CN(C(C)=O)c2cc(F)ccc2Oc2ccccc2)c1
Result: 102

Q: Which cell viability value belongs to N=C(N)c1ccc(/C=C/c2ccc(C(=N)N)cc2O)cc1 [hydroxystilbamidine] ?
Result: 96.7

Q: Any idea what cell viability was measured for C1CCN2C[C@@H]3C[C@@H](CN4CCCC[C@@H]34)[C@H]2C1 [sparteine-sulfate] ?
Result: 97.4

###

- Test system: U2OS
- Measurement Notes: cell viability relative to DMSO; higher = less toxic
- Reported Conditions: 72 h; 1000 nM
Kindly supply the reported cell viability values for the records listed here.
Give the value, in units of %, as a plain number.

Q: Give its cell viability value. Item: O=C1C(c2ccccn2)=[N+]([O-])c2ccccc21
Result: 95.3

Q: Quick one: cell viability of CCC(C)(C)C(=O)C(=O)N1CCC[C@H]1C(=O)OCCCc1cccnc1 ?
Result: 102

Q: I would be grateful if you could share the reported cell viability for CC(C)(C)NCC(O)c1cc(Cl)c(N)c(C(F)(F)F)c1 (centres undefined) .
Result: 97.7

Q: // query cell viability value for entry C(=C\c1ccccc1)/CN1CCN(CCOC(c2ccccc2)c2ccccc2)CC1
Result: 103

Q: So what does the record say about cell viability for CSc1ccc(C(=O)N[C@@H]2CCCC[C@@H]2NC(=O)CNC(=O)c2cc(C(F)(F)F)ccc2NC(=O)NC(C)C)cc1 ?
Result: 103

Q: Tell me the measured cell viability of C=Cc1cc(O)cc2nc(-c3ccc(O)c(F)c3)oc12 , please.
Result: 98.6

Q: # cell viability lookup, item c1ccc2nc(C3=NCCN3)ccc2c1
Result: 95.6

Q: Recorded cell viability for CN(C)CC(=O)Nc1ccc2[nH]c(=O)c3ccccc3c2c1 , please?
Result: 94.6

Q: Form field: reported cell viability of CCC[C@@]1(CCc2ccccc2)CC(O)=C([C@H](CC)c2cccc(NS(=O)(=O)c3ccc(C(F)(F)F)cn3)c2)C(=O)O1
Result: 104

###

- System: U2OS
- Measurement Notes: cell viability relative to DMSO; higher = less toxic
- Reported Conditions: 72 h; 1000 nM
I'd be grateful if you could share measured cell viability for these entries.
Answer with a number only, understood to be in %.

Q: Using the record for CC(=O)OCC1=C(C(=O)O)N2C(=O)[C@@H](NC(=O)CCCC(N)C(=O)O)C2SC1 (stereo not given in full) , report its cell viability.
Result: 92.7

Q: Fill in: cell viability of CCCCCCCCCCCCCCCCCCCCCCCCC(=O)O is ___
Result: 95.9

Q: What value of cell viability has been recorded for this entry: CC[N+](CC)(CCNC(=O)C(=O)NCC[N+](CC)(CC)Cc1ccccc1Cl)Cc1ccccc1Cl
Result: 94.9

Q: Look at this compound and give its reported cell viability. N#C/C(=C\c1cn(-c2ccccc2)c2ccccc12)C(=O)O
Result: 103

Q: Which cell viability value is on record for COc1cc2ncnc(Nc3ccc(Oc4ccccc4)cc3)c2cc1OC ?
Result: 103

Q: Bench note: what cell viability did CCOC(=O)C1=CCCC[C@H]1S(=O)(=O)Nc1ccc(F)cc1Cl show?
Result: 99.6

Q: // lookup cell viability for COC(=O)N1CC[C@@H]2[C@H]1CCC[C@@]2(O)C#Cc1cccc(C)c1
Result: 101

Q: Endpoint output: cell viability of CN(C)CCCN1c2ccccc2CCc2ccccc21 . Value?
Result: 102

Q: # cell viability lookup, item O=c1cc(-c2ccccc2)oc2cc(O)cc(O)c12
Result: 97.4

Q: cell viability lookup needed for COC(=O)C1=C(C)NC(C)=C(C(=O)O[C@H]2CCN(Cc3ccccc3)C2)[C@H]1c1cccc([N+](=O)[O-])c1 , thanks.
Result: 98.2

###

- Tested on: Vero E6
- Measurement Notes: drug sensitivity score (DSS) for viability; higher = more toxic; extreme values may be limits of the assay
- Reported Conditions: 72 h
Measured Parameter: drug sensitivity score
// return a plain number; no unit text

Q: Recorded drug sensitivity score of CCC(CC)O[C@@H]1C=C(C(=O)O)C[C@H](N)[C@H]1NC(C)=O [oseltamivir-carboxylate] , please.
Result: 0

Q: // returns reported drug sensitivity score for input CNC(=O)c1ccc(Nc2ncc(C(F)(F)F)c(NCc3nccnc3N(C)S(C)(=O)=O)n2)cc1
Result: 2.6

Q: Request the reported drug sensitivity score associated with CO[C@H]1CC[C@@H](C(=O)c2ccc3nc4c(cc3c2)CCCO4)CC1
Result: 0

Q: # query: drug sensitivity score of entry O=c1cc(-c2cccc3c2Sc2ccccc2S3)oc(N2CCOCC2)c1
Result: 0.2

Q: Dear colleague, I am looking for the recorded drug sensitivity score of the following molecule: Nc1ccn([C@@H]2O[C@H](CO)[C@@H](O)[C@@H]2O)c(=O)n1
Result: 2.7

###

- Tested on: Calu-3
- Measurement Notes: cell viability relative to DMSO; higher = less toxic
- Reported Conditions: 72 h; 100 nM
Measured Parameter: cell viability (%)
Your answer is read as %, so omit the unit and give the number.

Q: // query cell viability value for entry CON(C)C(=O)[C@H](O)[C@H](Cc1ccccc1)NC(=O)c1cc2cc(Cl)ccc2[nH]1
Result: 92.7

Q: Given the compound Cc1oc(=O)oc1CN1CCN(c2cc3c(cc2F)c(=O)c(C(=O)O)c2n3C(C)S2)CC1 (stereo not given) [prulifloxacin] , what is its reported cell viability?
Result: 99.4

Q: // returns reported cell viability for input COc1cc(NC(=O)c2ccc(-c3ccc(Cl)cc3)o2)cc(OC)c1
Result: 109

Q: Value lookup for cell viability; key = Cc1nccc2c1[nH]c1ccccc12 [harmane]
Result: 101

Q: If you can, please state the reported cell viability value of Cc1sc2c(c1C)C(c1ccc(Cl)cc1)=N[C@@H](CC(N)=O)c1nnc(C)n1-2 [CPI-203] .
Result: 100

###

- Test system: Vero E6
- Measurement Notes: cell viability relative to DMSO; higher = less toxic
- Reported Conditions: 72 h; 10000 nM
Measured Parameter: cell viability

Q: Which cell viability reading was recorded for the compound O=C(/C=C/N1C[C@H]2C[C@@H]1CN2c1ccccn1)c1ccccc1O [PFI-3] ?
Result: 104%

Q: Data request, read-out cell viability, for Cc1ccc(C(=O)C(C)CN2CCCCC2)cc1 (stereo not given) [tolperisone]
Result: 99.4%

Q: May I ask what cell viability has been recorded for Nc1ccn([C@@H]2O[C@H](CO)[C@@H](O)[C@@H]2O)c(=O)n1 [cytarabine] ?
Result: 62.1%

Q: I am curious: what cell viability value has been reported for Oc1ccc(-c2nc3cc(O)cc(Br)c3o2)cc1 ?
Result: 98.9%

Q: Would you mind telling me what cell viability value was observed for O=C(Nc1cccc2cccnc12)c1ccc(N2C(=O)[C@@H]3[C@H](C2=O)[C@H]2C=C[C@@H]3C2)cc1 [exo-IWR-1] ?
Result: 106%

###

- System: Caco-2
- Measurement Notes: cell viability relative to DMSO; higher = less toxic
- Reported Conditions: 72 h; 10000 nM
Can you tell me cell viability for the items I'm about to list?
Answer in %, number only, no unit symbol.

Q: Sample CN(C)c1cc(CNCC(C)(C)C)c(O)c2c1C[C@H]1C[C@H]3[C@H](N(C)C)C(O)=C(C(N)=O)C(=O)[C@@]3(O)C(O)=C1C2=O — what was its cell viability?
Result: 96.4

Q: Look up cell viability: C[C@H](CCC(=O)O)[C@H]1CC[C@H]2[C@@H]3[C@H](O)C[C@@H]4C[C@H](O)CC[C@]4(C)[C@H]3C[C@H](O)[C@]12C
Result: 93

Q: What measured cell viability goes with Oc1cccc(Nc2ccc(Nc3cccc(O)c3)nn2)c1 [beta-amyloid-synthesis-inhibitor] ?
Result: 94.4

Q: Endpoint output: cell viability of C=CC(=O)N1CCC(Oc2cc3c(Nc4ccc(Cl)c(Cl)c4F)ncnc3cc2OC)CC1 . Value?
Result: 60.1

Q: Any idea what cell viability was measured for O=c1[nH]c2ccccc2n1CCCN1CCN(C(c2ccccc2)c2ccccc2)CC1 [oxatomide] ?
Result: 83.7

Q: I'd like to know its cell viability. The compound in question is Cc1ccc(C(=O)Cn2c3c(sc2=N)CCCC3)cc1
Result: 90.1

Q: Find the recorded cell viability belonging to O=C(c1c2ccccc2cc2ccccc12)N1CCC(N2CCC[C@@H](C(=O)N3CCOCC3)C2)CC1 and report it.
Result: 87.2

Q: Request the reported cell viability associated with O=C(c1ccc(F)cc1)C1CCN(CCn2c(=O)[nH]c3ccccc3c2=O)CC1
Result: 96.9

Q: Consider the compound shown here: C=C1CC[C@@]2(O)[C@H]3Cc4ccc(O)c5c4[C@@]2(CCN3CC2CC2)[C@H]1O5 What is its recorded cell viability?
Result: 99.3

Q: What measured cell viability goes with CC(C)c1cc(C(=O)N2Cc3ccc(CN4CCN(C)CC4)cc3C2)c(O)cc1O ?
Result: 39.1

Q: Requested field: cell viability. Item: CN(C)CCOc1ccc(-c2nc(-c3ccncc3)c(-c3ccc4c(c3)CC/C4=N\O)[nH]2)cc1
Result: 98.6

Q: # cell viability lookup, item CC1(C)OC(=O)NC1=O
Result: 98.3

Q: Give its cell viability value. Item: C[C@H](N/C(=N/C#N)Nc1cccc2ncccc12)c1ccccc1
Result: 98.6

Q: Fill blank: measured cell viability of the compound CC1(COc2ccc3c(c2)ncn3-c2ccc3cccc(N4CCC(N)CC4)c3n2)COC1 is ____.
Result: 94.5

Q: What measured cell viability goes with O=C1c2ccccc2C(=O)C1c1ccccc1 ?
Result: 101

Q: Bench note: what cell viability did O=C(Nc1cccc(Nc2ncc(Br)c(NCCc3cnc[nH]3)n2)c1)N1CCCC1 show?
Result: 101

Q: Which cell viability is reported for this compound? Nc1nccc2c1ncn2[C@@H]1O[C@H](CO)[C@@H](O)[C@@H]1O
Result: 97
